Biological target: preactivated Tie2 (Homo sapiens)
Construct: A recombinant fusion protein of GST and the intracellular domains of Tie2; GST
Sequence (Q02763 770-1124 limits assumed): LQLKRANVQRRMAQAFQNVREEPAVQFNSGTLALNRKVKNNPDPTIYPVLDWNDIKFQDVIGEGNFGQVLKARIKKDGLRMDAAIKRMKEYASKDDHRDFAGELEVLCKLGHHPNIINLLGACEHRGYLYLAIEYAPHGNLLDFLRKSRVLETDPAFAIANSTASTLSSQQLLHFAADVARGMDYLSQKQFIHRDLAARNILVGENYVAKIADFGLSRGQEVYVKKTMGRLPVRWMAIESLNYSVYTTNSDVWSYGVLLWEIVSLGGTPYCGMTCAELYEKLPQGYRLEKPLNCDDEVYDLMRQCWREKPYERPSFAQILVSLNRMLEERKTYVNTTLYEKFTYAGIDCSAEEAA
Test: Tie2-Kinase HTRF-Assay with kinase preactivation (assay 3)
Conditions: 10 μM ATP, pIC50 = −log IC50 in molar concentration, read-out: Tie 2 activity (assay 3)
Method: Assay 3: Tie2-Kinase HTRF-Assay with Kinase Preactivation A recombinant fusion protein of GST and the intracellular domains of Tie2, expressed in insect cells (Hi-5) and purified by Glutathion-Sepharose affinity chromatography was used as kinase. As substrate for the kinase reaction the biotinylated peptide biotin-Ahx-EPKDDAYPLYSDFG (C-terminus in amid form) was used which can be purchased e.g. from the company Biosynthan GmbH (Berlin-Buch, Germany). For activation, Tie2 was incubated at a conc. […]
pIC50: −log10 of the molar value.
Form field: pIC50 (one value per entry).

Please review the entries below; each comes with its answer.
C[C@H](CO)Nc1nc(Nc2cccc(S(C)(=N)=O)c2)ncc1-c1ccc(NC(=O)C2(c3ccccc3)CC2)cc1 (mixture of isomers): 6.00 to 7.00
CCOC(=O)N=S(C)(=O)c1cccc(Nc2ncc(-c3ccc(NC(=O)Nc4cc(C(F)(F)F)ccc4F)c(F)c3)c(NCCN3CCN(C)CC3)n2)c1 (racemic): 6.00 to 7.00

Next molecule, please.
## Input Which value of pIC50 has been reported for COc1nc(Nc2cccc(S(C)(=N)=O)c2)ncc1-c1ccc(NC(=O)Nc2cc(C(F)(F)F)ccc2F)c(F)c1 (racemic) in the records?
## Output > 7.00
